Examples of compounds with documented melting point follow.
reported.metric: melting point

>>> print(df.to_string())
                                   compound  endpoint_result
0          Cn1c2ccccc2c2oc(C(N)=O)cc(=O)c21         > 295 °C
1   CCOC(=O)c1c(O)c2cnc(N3CCCC3)nc2n(C)c1=O    174 to 177 °C
2  COc1ccc(N2N=C(C)C(C(=O)Nc3ccc(F)cc3)C2=O)cc1 (centres undefined)    125 to 128 °C
3  C#CCOCC1CCC(COCC#C)CC1 (centres undefined)      56 to 60 °C
4  COc1ccc(CNc2nc(SC)ncc2C(=O)CP(=O)(OC)OC)cc1Cl    104 to 105 °C
5  CCOP(=O)(/C=C/c1cn(-c2ccccc2)nc1OCc1ccc(OCc2nc(-c3cccc(O)c3)oc2C)c(OC)c1)OCC    127 to 128 °C
6  CC(=O)NCC(O)(Cn1cncn1)c1ccc(Cl)cc1Cl (centres undefined)    178 to 179 °C
7  COc1ccccc1C(=O)Nc1ccc(CN2C(=O)[C@H]3CCC[C@H]3N(C(=O)CN3C(=O)c4ccccc4C3=O)c3ccccc32)cc1 (relative stereo)    279 to 281 °C
8  COC(=O)[C@@H]1CCCN1S(=O)(=O)c1ccc(Cl)c(COc2cccc3ccc(C)nc23)c1Cl           136 °C

* * *

Examples of compounds with documented melting point follow.
reported.metric: melting point

                                    compound  endpoint_result
 0  CC(C)(C)OC(=O)NCC(=O)N[C@@H](Cc1ccccc1)C(=O)O    138 to 141 °C
 1       NNC(=O)c1ccnc2[nH]c(CCc3ccccc3)cc12    233 to 234 °C
 2  CN(C)Cc1ccc2cc(NC(=O)c3ccc(-c4ccccc4)cc3)ccc2n1    191 to 194 °C
 3  CC(=O)NC(=O)CSC(c1ccccc1)(c1ccccc1)c1ccccc1    147 to 149 °C
 4  COc1cc(C(C)=O)ccc1OCCCN1CCC(C(O)(c2ccc(F)cc2)c2ccc(F)cc2)C1 (stereo not given)      44 to 46 °C
 5  COc1cc2c(cc1OCc1ccccc1)CCCN(Cc1cc(OC)c(OC)c(OC)c1)C2      44 to 46 °C
 6  C=C1OC(=NO)C(c2ccccc2)C(=O)N1C(C)(C)C(=O)Nc1cc(Cl)cc(Cl)c1 (stereo not given)    208 to 210 °C
 7  CCN1CCN(Cc2ccc(NC(=O)Nc3ccc(Oc4cc(Cl)ncn4)cc3)cc2)CC1    203 to 204 °C
 8  Nc1ccc(S(=O)c2ccccc2)cc1[N+](=O)[O-] (stereo not given)    146 to 147 °C
 9  N#Cc1ccc2[nH]c(C(=O)C34CC5CC(CC(C5)C3)C4)cc2c1    250 to 252 °C
10    OC(c1ccc(Cl)cc1)(c1ccc(Cl)cc1)C1CCNCC1    184 to 188 °C
11             Nc1nc2c(ncn2COCCCO)c(=O)[nH]1           223 °C
12  CCCc1cnc2c(NC(=O)c3c(Cl)cccc3Cl)cccc2c1NNC(C)=O    223 to 226 °C
13  CC(C)N1Cc2cc(S(C)(=O)=O)ccc2N(CCN2CC=C(c3c[nH]c4cc(F)ccc34)CC2)S1(=O)=O    118 to 120 °C
14  CC1(C)C(C(=O)O)N2C(=O)C(NC(=O)COc3ccccc3)C2S1=O (stereo not given)    160 to 161 °C
15  O=S(=O)(c1ccccc1)N1CCN(C(c2ccccc2)c2ccc(Cl)cc2)CC1 (single isomer, unassigned; (-))    116 to 118 °C
16          Clc1cccc(C2=CCN(Cc3ccccc3)CC2)n1    100 to 102 °C
17  CC(=O)OC1C(c2ccccc2)=C(c2ccc(S(C)(=O)=O)cc2)C1(C)C (stereo not given)      60 to 61 °C
18  O=C1NC(=O)C(c2ccc(O)cc2)N1 (stereo not given)           262 °C
19        Cc1ncc(C(=O)NCCOCCO[N+](=O)[O-])s1      47 to 48 °C
